Below is a list of entries, each paired with its recorded kd(slow) value.
experimental.target: T1, recombinant human VEGF165 (human, UniProt P15692-4 27-191, biotinylated (Sulfo-NHS-LC-Biotin) in the competition assays)
T1 construct: also called hVEGF165; rhVEGF165
T1 sequence (P15692 other isoform, or with tags, fused parts or gaps limits assumed): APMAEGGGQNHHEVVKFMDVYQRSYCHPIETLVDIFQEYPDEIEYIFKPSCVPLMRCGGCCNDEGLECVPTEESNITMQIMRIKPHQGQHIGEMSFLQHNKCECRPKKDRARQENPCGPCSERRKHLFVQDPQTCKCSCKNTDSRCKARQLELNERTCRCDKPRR
assay.info: Biacore, periplasmic extract, VEGF165 chip, two phase decay fit
Design: unit not given here
Please reply with the value in numeric form only.

// below: answered binders
binder | measured.result
VEGFBII30E07 (VHH, not shown: small tags and cut ends) VHH: EVQLVESGGGLVQAGDSLRLSCAASGRTFSSYSMGWFRQAQGKEREFVVAISSSGNYKYDSVSLEGRFTISRDNTKNTVYLQINSLKPEDTAVYYCAASRAYGSSRLRLGDTYDYWGQGTRVTVSS | 0.00013
VEGFBII24C04 (VHH, not shown: small tags and cut ends, also purified from E. coli TG1; also called VEGFBII24C4) VHH: EVQLVESGGGLVQPGDSLKLSCVASGRTSSSYSMGWFRQAQGKEREFVVAISSGGYIYDSVSLQGRFTISRDNTKNTVYLQTPSLKPEDTAVYYCAASRAYGSSRLRLADTYDYWGQGTQVTVSS | 3.4e-05

Query string: Entry under review: VEGFBII23F05 (VHH, not shown: small tags and cut ends) VHH: EVQLVESGGGLVQAGDSLRLSCAASGRTFSSYSMGWFRQAQGKEREFVVAISSSGNYKYDSVSLEGRFTISRDNTKNTVYLQINSLKPKDTAVYYCAASRAYGSSRLRLGDTYDYWGQGTQVTVSS . Reported kd(slow)?
Result string: 0.00013

Query string: Entry under review: VEGFBII27D08 (VHH, not shown: small tags and cut ends) VHH: EVQLVESGGGLVQTGDSLRLSCAASGRTFSSYSMGWFRQAQGKEREFVVAISSGGYKYDSVSLEGRFTISRDNTQNTVYLQINSLKPEDTAVYYCAASRAYGSGRLRLADTYDYWGQGTQVTVSS . Reported kd(slow)?
Result string: 8.1e-05
